All values here come from ChEMBL document CHEMBL1130829.

Exercise: state measured IC50 for each of the molecules provided.
target-or-system: Capsid scaffolding protein (Human cytomegalovirus (strain AD169) (HHV-5) (Human herpesvirus 5))
Sequence (P16753 whole entry): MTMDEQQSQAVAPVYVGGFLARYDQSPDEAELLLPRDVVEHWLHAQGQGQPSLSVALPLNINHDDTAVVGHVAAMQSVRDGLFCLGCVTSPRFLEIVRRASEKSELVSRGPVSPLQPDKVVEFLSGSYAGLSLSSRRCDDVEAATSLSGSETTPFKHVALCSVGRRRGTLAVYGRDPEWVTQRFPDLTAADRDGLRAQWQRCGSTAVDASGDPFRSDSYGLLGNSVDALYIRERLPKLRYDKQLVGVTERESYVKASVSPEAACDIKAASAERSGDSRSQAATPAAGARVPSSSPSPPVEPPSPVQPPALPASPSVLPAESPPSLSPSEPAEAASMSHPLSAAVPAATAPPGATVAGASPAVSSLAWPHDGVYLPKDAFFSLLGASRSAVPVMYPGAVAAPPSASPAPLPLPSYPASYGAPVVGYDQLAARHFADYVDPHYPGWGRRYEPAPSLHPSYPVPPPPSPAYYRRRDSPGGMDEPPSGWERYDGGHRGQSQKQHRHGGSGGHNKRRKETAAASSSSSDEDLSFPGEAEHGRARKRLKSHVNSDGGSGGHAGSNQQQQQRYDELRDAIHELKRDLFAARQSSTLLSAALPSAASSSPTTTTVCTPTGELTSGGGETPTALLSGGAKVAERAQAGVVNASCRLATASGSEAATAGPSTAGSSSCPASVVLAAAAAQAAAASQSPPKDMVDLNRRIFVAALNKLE
assay-protocol: Inhibitory activity against human cytomegalovirus (HCMV) protease
Expressed in nM, but write only the number.

In one line, give reported IC50 of the entry CC(C)C[C@@H](COC1CC(=O)N1C(=O)N[C@@H](C)c1ccccc1)NC(=O)[C@@H](NC(=O)OC(C)(C)C)C(C)(C)C (some centres not stated) .
300

In one line, give reported IC50 of the entry C[C@@H](NC(=O)N1C(=O)CC1SCc1ccccc1)c1ccccc1 (some centres not stated) .
2400

In one line, give reported IC50 of the entry CC(C)C[C@@H](COC1CC(=O)N1C(=O)N[C@H](C)c1ccccc1)NC(=O)[C@@H](NC(=O)OC(C)(C)C)C(C)(C)C (some centres not stated) .
1400

In one line, give reported IC50 of the entry O=C1CC(SCc2ccccn2)N1C(=O)NCCOCc1ccccc1 (configuration not stated) .
6400

In one line, give reported IC50 of the entry C[C@@H](NC(=O)N1C(=O)CC1SCc1ccc(CC(=O)OC(C)(C)C)cc1)c1ccccc1 (some centres not stated) .
75000

In one line, give reported IC50 of the entry CC[C@H](NC(=O)N1C(=O)CC1SC[C@H](CC(C)C)NC(=O)[C@@H](NC(=O)CC(C)(C)C)C(C)(C)C)c1ccccc1 (some centres not stated) .
70
